Kindly state log10 of Ki for each of the entries shown.
subject.of.test: UniProt P08908
Sequence (P08908 whole entry): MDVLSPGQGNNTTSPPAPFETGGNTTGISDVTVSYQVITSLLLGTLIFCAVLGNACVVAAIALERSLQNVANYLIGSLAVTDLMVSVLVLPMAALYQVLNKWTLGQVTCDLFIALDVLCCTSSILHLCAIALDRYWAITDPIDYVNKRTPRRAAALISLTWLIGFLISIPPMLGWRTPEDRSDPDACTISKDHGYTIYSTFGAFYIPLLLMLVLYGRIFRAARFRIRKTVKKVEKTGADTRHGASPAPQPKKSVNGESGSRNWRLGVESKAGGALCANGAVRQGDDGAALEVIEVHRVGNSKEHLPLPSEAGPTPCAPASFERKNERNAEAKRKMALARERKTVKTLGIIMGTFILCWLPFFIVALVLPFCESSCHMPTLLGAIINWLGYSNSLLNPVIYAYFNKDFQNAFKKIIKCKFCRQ
assay.method.text: Affinity for human 5-HT1A receptor ([3H]8-OH-DPAT binding, HEK-293 cell homogenates);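 further: Filter-retained radioactivity counted by scintillation, non-specific binding defined with 10 µM 8-OH-DPAT, Ki derived from percent inhibition of specific radioligand binding versus control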
setup.conditions: read-out: Ki, binding affinity for 5-HT1A receptor; 0.3 nM [3H]8-OH-DPAT, human HEK-293 cell homogenates, 22° C., 60 minutes
Quick note: numbers are log10 of Ki, with nM as the unit.

[
  {
    "smiles.notation": "CCOC(=O)c1sc(N2CCN(CCCc3c[nH]c4ccc(C#N)cc34)CC2)nc1C",
    "log10 of Ki": -0.52
  },
  {
    "smiles.notation": "Cc1cc(C)nc(N2CCN(CCCc3c[nH]c4ccccc34)CC2)n1",
    "log10 of Ki": 0.61
  },
  {
    "smiles.notation": "Cc1cc(C)nc(N2CCN(CCCc3c[nH]c4ccc(C#N)cc34)CC2)n1",
    "log10 of Ki": 0.04
  },
  {
    "smiles.notation": "N#Cc1ccc2[nH]cc(CCCN3CCN(c4nccc(C(N)=O)n4)CC3)c2c1",
    "log10 of Ki": 1.15
  },
  {
    "smiles.notation": "COc1cc(OC)nc(N2CCN(CCCc3c[nH]c4ccc(Cl)cc34)CC2)n1",
    "log10 of Ki": 0.30
  }
]

# return log10 of Ki for each item in the list
1. N#Cc1ccc2[nH]cc(CCCCN3CCN(c4nccc(C(F)(F)F)n4)CC3)c2c1
2. Cc1nc(N2CCN(CCCCc3c[nH]c4ccc(C#N)cc34)CC2)sc1C(N)=O
3. N#Cc1ccc2[nH]cc(CCCCN3CCN(c4nccc(C(N)=O)n4)CC3)c2c1
4. COc1cc(OC)nc(N2CCN(CCCCc3c[nH]c4ccc(C#N)cc34)CC2)n1
5. NC(=O)c1ccnc(N2CCN(CCCCc3c[nH]c4ccc(F)cc34)CC2)n1
6. COc1cc(OC)nc(N2CCN(CCCCc3c[nH]c4ccc(Cl)cc34)CC2)n1
7. Cc1nc(N2CCN(CCCc3c[nH]c4ccc(C#N)cc34)CC2)sc1C(N)=O
8. N#Cc1ccnc(N2CCN(CCCCc3c[nH]c4ccc(F)cc34)CC2)n1

1. -0.15
2. 1.08
3. 1.00
4. 0.36
5. 1.78
6. 0.04
7. 0.57
8. 1.26

Your task in this section: give log10 of Ki for each listed record.
1. Cc1cc(C)nc(N2CCN(CCCCc3c[nH]c4ccc(Cl)cc34)CC2)n1
2. COc1cc(OC)nc(N2CCN(CCCCc3c[nH]c4ccc(F)cc34)CC2)n1
3. Cc1cc(C)nc(N2CCN(CCCc3c[nH]c4ccc(F)cc34)CC2)n1
4. Cc1cc(C)nc(N2CCN(CCCc3c[nH]c4ccc(Cl)cc34)CC2)n1
5. Cc1cc(C)nc(N2CCN(CCCCc3c[nH]c4ccccc34)CC2)n1
6. Cc1nc(N2CCN(CCCCc3c[nH]c4ccc(F)cc34)CC2)sc1C(N)=O

0.26
0.45
0.15
-0.15
0.04
1.36
